I'd appreciate it if you could supply drug sensitivity score values for the items below.
tested on: HDQ-P1; assay: drug sensitivity score (DSS), CellTiter-Glo (DSS (AUC-based score)); higher = stronger drug effect (viability inhibition or cytotoxicity); extreme values may be limits of the assay; conditions: incubation time: 72 h

1. O=C1NC(=O)[C@@H](c2cn3c4c(cccc24)CCC3)[C@@H]1c1c[nH]c2ccccc12 [Tivantinib]; 0
2. CN1CCN(CCOc2cc(OC3CCOCC3)c3c(Nc4c(Cl)ccc5c4OCO5)ncnc3c2)CC1 [Saracatinib]; 9.63
3. CC[C@]1(O)C[C@H]2CN(CCc3c([nH]c4ccccc34)[C@@](C(=O)OC)(c3cc4c(cc3OC)N(C=O)[C@H]3[C@@](O)(C(=O)OC)[C@H](OC(C)=O)[C@]5(CC)C=CCN6CC[C@]43[C@@H]65)C2)C1 [Vincristine]; 7.83
4. COc1ccc(-c2ccc3c(N4CCOC[C@@H]4C)nc(N4CCOC[C@@H]4C)nc3n2)cc1CO [AZD8055]; 20.9

Look at each compound and report its drug sensitivity score.
1. CC(C)c1c(C(=O)Nc2ccccc2)c(-c2ccccc2)c(-c2ccc(F)cc2)n1CC[C@@H](O)C[C@@H](O)CC(=O)O [Atorvastatin]
2. CNNCc1ccc(C(=O)NC(C)C)cc1 [Procarbazine]

[5.79, 0]
